Measured values drawn from patent US6737383B1 for this set.

# Lookup of reported Plant response rating, Giant foxtail keyed by entry
- Tested on: giant foxtail
- TEST DESCRIPTION: Test B pre/postemergence giant foxtail
- Type: in vivo, Setaria faberii
- TEST SETTINGS: Preemergence, Rate 500 g/ha; scale of 0 to 10 where 0 is no effect and 10 is complete control
Just the number.

Solved entries:
| COMPOUND | SUBJECT OF TEST | Plant response rating, Giant foxtail |
| --- | --- | --- |
| CC(C)N(C(=O)n1oc(=O)n(CC(C)[N+](=O)[O-])c1=O)c1ccc(F)cc1F (stereo not shown) | giant foxtail | 0 |
| C=C(Cl)Cn1c(=O)on(C(=O)N(c2ccccc2)C(C)C)c1=O | giant foxtail | 10 |
| CC(C)N(C(=O)n1oc(=O)n(CCC(=O)N(C)C)c1=O)c1ccc(F)cc1 | giant foxtail | 10 |

Query: Give Plant response rating, Giant foxtail (giant foxtail) of the following compound: CC(C)N(C(=O)n1oc(=O)n(C2CCCC2)c1=O)c1ccc(F)cc1
Result: 10

---

Recorded Rape plant response rating, one value per entry.
- System: rape
- TEST DESCRIPTION: Test B pre/postemergence rape
- Format: in vivo, Brassica napus
- TEST SETTINGS: Preemergence, Rate 250 g/ha; scale 0 (no effect) to 10 (complete control)
// no unit, no text: just the number

Consider the reported Rape plant response rating for these compounds:
| COMPOUND | MEASURED METRIC | EXPERIMENTAL RESULT |
| --- | --- | --- |
| C#CCn1c(=O)on(C(=O)N(c2ccc(F)cc2F)C(C)C)c1=O | Rape plant response rating | 9 |
| CC(C)N(C(=O)n1oc(=O)n(CC2=NOCC2)c1=O)c1ccccc1 | Rape plant response rating | 3 |
| CC(C)N(C(=O)n1oc(=O)n(C(C)C(=S)N(C)C)c1=O)c1ccc(F)cc1F (stereo not shown) | Rape plant response rating | 0 |

Query: Write down the reported Rape plant response rating of CC(C)N(C(=O)n1oc(=O)n(CCCCl)c1=O)c1ccc(F)cc1 , test system: rape.
Result: 8

---

- System: rice
- TEST DESCRIPTION: Test B flood test rice
- Assay type: in vivo, Oryza sativa
- TEST SETTINGS: Rate 500 g/ha; Pre-emergence; flood test species; scale 0 to 10 (0 no effect, 10 complete control)
- Method: At the same time, these crop and weed species were also treated with postemergence applications of test chemicals formulated in the same manner. Plants ranged in height from 2 to 18 cm (1- to 4-leaf stage) for postemergence treatments. […] Treated plants and controls were maintained in a greenhouse for twelve to sixteen days, after which all species were compared to controls and visually evaluated. […]
MEASURED METRIC: Rice plant response rating

Record excerpt, results attached:
| COMPOUND | MEASURED METRIC | EXPERIMENTAL RESULT |
| --- | --- | --- |
| CCC(CC)n1c(=O)on(C(=O)N(c2ccc(F)cc2)C(C)C)c1=O [Compound 358] | Rice plant response rating | 8 |
| CC(C)N(C(=O)n1oc(=O)n(C2CC3CCC2C3)c1=O)c1ccccc1 (stereo not shown) [Compound 328] | Rice plant response rating | 7 |

Query: Entry under review: Cc1ccccc1-n1c(=O)on(C(=O)N(c2ccc(Oc3ccccc3)cc2)C(C)C)c1=O [Compound 268] . Reported Rice plant response rating?
Result: 0

Query: # lookup: Rice plant response rating of CCOC(=O)C(C)N(C(=O)n1oc(=O)n(-c2ccccc2C)c1=O)c1ccc(F)cc1 (stereo not shown) [Compound 247]
Result: 0

---

Catalogue of Plant response rating, Rape readings, one per entry.
- System: rape
- TEST DESCRIPTION: Test B pre/postemergence rape
- Format: in vivo, Brassica napus
- TEST SETTINGS: Preemergence, Rate 62 g/ha; scale 0 to 10 (0 no effect, 10 complete control)
Form rule: numeric answer, no unit written next to it.

| COMPOUND | Plant response rating, Rape |
| --- | --- |
| CC1CC1n1c(=O)on(C(=O)N(c2ccc(F)cc2F)C(C)C)c1=O (centres unmarked) [Compound 372] | 5 |
| CC(C)N(C(=O)n1oc(=O)n(N2C(C)CCCC2C)c1=O)c1ccc(F)cc1F (centres unmarked) [Compound 383] | 0 |
| CC(C)N(C(=O)n1oc(=O)n(C2CCC2)c1=O)c1ccc(F)cc1F [Compound 351] | 0 |
| CCC(CC)n1c(=O)on(C(=O)N(c2ccc(F)cc2)C(C)C)c1=O [Compound 358] | 0 |

From here, focus on the item given below.
Query: Param readout= Plant response rating, Rape; system= rape; entry= CC1CC1n1c(=O)on(C(=O)N(c2ccc(F)cc2)C(C)C)c1=O (centres unmarked) [Compound 371] ; returns value.
Result: 0

---

- Test system: sugar beet
- TEST DESCRIPTION: Test B pre/postemergence sugar beet
- Assay type: in vivo, Beta vulgaris
- TEST SETTINGS: Rate 500 g/ha, Postemergence; scale 0 to 10, 0 no effect, 10 complete control
Below is a list of entries, each paired with its recorded Plant response rating, Sugarbeets value.
Write the number on its own, no unit after it.

| COMPOUND | SUBJECT OF TEST | Plant response rating, Sugarbeets |
| --- | --- | --- |
| CC(C)N(C(=O)n1oc(=O)n(C2(C)CC2)c1=O)c1ccc(F)cc1F | sugar beet | 3 |
| CC(C)N(C(=O)n1oc(=O)n(C2(C)CC2)c1=O)c1ccc(Cl)cc1 | sugar beet | 6 |
| CC1CC1n1c(=O)on(C(=O)N(c2ccccc2)C(C)C)c1=O (stereo not shown) | sugar beet | 0 |

Query: Give the measured Plant response rating, Sugarbeets of CC(C)N(C(=O)n1oc(=O)n(C2CC3CCC2C3)c1=O)c1ccccc1 (stereo not shown) .
Result: 0

---

- Test system: surinam grass
- TEST DESCRIPTION: Test B pre/postemergence surinam grass
- Format: in vivo, Brachiaria decumbens
- TEST SETTINGS: Preemergence, Rate 62 g/ha; scale of 0 to 10 where 0 is no effect and 10 is complete control
Reported Plant response rating, B. signalgrass values follow for various compounds
Number, no unit, nothing else.

Example entries begin here.
| COMPOUND | Plant response rating, B. signalgrass |
| --- | --- |
| CC(C)N(C(=O)n1oc(=O)n(CCCNC(=O)CCl)c1=O)c1ccccc1 [Compound 493] | 0 |
| CC(C)N(C(=O)n1oc(=O)n(CCC#N)c1=O)c1ccc(Cl)cc1 [Compound 444] | 0 |

Now look at this entry.
Query: Query (compound): CCC(=O)Cn1c(=O)on(C(=O)N(c2ccc(F)cc2F)C(C)C)c1=O [Compound 524] ; field requested: Plant response rating, B. signalgrass
Result: 0

---

Below, each entry is listed alongside its reported Sugarbeets plant response rating.
- Test system: sugar beet
- TEST DESCRIPTION: Test B pre/postemergence sugar beet
- Assay type: in vivo, Beta vulgaris
- TEST SETTINGS: Rate 500 g/ha, Postemergence; scale 0 to 10, 0 no effect, 10 complete control
The answer should be a number; do not append a unit.

| COMPOUND | SUBJECT OF TEST | Sugarbeets plant response rating |
| --- | --- | --- |
| CN(C(=O)n1oc(=O)n(Cc2cccs2)c1=O)c1ccccc1 | sugar beet | 0 |
| COC(=O)C=CCn1c(=O)on(C(=O)N(c2ccc(F)cc2)C(C)C)c1=O | sugar beet | 0 |
| CC1Cc2cccc(-n3c(=O)on(C(=O)N(c4ccc(F)cc4)C(C)C)c3=O)c2O1 (centres unmarked) | sugar beet | 4 |
| CCN(Cc1ccccc1)C(=O)n1oc(=O)n(-c2ccccc2C)c1=O | sugar beet | 0 |
| COc1cccc(C)c1-n1c(=O)on(C(=O)N(c2ccc(F)cc2)C(C)C)c1=O | sugar beet | 5 |
| Cc1ccccc1-n1c(=O)on(C(=O)N(c2ccc(C(C)C)cc2)C(C)C)c1=O | sugar beet | 0 |
| CC(C)N(C(=O)n1oc(=O)n(C2CCCC2)c1=O)c1ccc(F)cc1 | sugar beet | 6 |

Query: Value wanted: Sugarbeets plant response rating (sugar beet) of entry CC(C)N(C(=O)n1oc(=O)n(Cc2ccccc2)c1=O)c1ccc(Cl)cc1
Result: 0

---

- Test system: morningglory
- TEST DESCRIPTION: Test B pre/postemergence morningglory
- Type: in vivo, Ipomoea hederacea
- TEST SETTINGS: Rate 250 g/ha, Postemergence; scale of 0 to 10 where 0 is no effect and 10 is complete control
Attribute: Plant response rating, Morningglory
Give a plain numeric answer without units written out.

| COMPOUND | Plant response rating, Morningglory |
| --- | --- |
| CC(C)N(C(=O)n1oc(=O)n(C2CC3CCC2C3)c1=O)c1ccc(F)cc1 (stereo not shown) | 8 |

Query: Plant response rating, Morningglory for CC1Cc2cccc(-n3c(=O)on(C(=O)N(c4ccc(F)cc4)C(C)C)c3=O)c2O1 (stereo not shown) ?
Result: 3

Query: For the compound shown here, CCN(C(=O)n1oc(=O)n(C(C)C)c1=O)C1CCCCC1 , give the reported Plant response rating, Morningglory.
Result: 2

Query: // lookup Plant response rating, Morningglory for CC(C)N(C(=O)n1oc(=O)n(CCCCF)c1=O)c1ccc(F)cc1
Result: 8

Query: Reported Plant response rating, Morningglory, compound CC(C)N(C(=O)n1oc(=O)n(C[Si](C)(C)C)c1=O)c1ccc(Cl)cc1 : ____
Result: 8

Query: Returns the measured Plant response rating, Morningglory for the input compound. Input: CCOC(=O)C=C(Cn1c(=O)on(C(=O)N(c2ccc(Cl)cc2)C(C)C)c1=O)OCC
Result: 4

Query: // query Plant response rating, Morningglory value for entry Cc1cccc(C(C)(C)C)c1-n1c(=O)on(C(=O)N(c2ccccc2)C(C)C)c1=O
Result: 0

Query: I'd like to know its Plant response rating, Morningglory. The compound in question is COCCOCn1c(=O)on(C(=O)N(c2ccc(Cl)cc2)C(C)C)c1=O
Result: 2

Query: Look up Plant response rating, Morningglory: CC(C)N(C(=O)n1oc(=O)n(CCC2OCCCO2)c1=O)c1ccc(Cl)cc1
Result: 5

Query: Plant response rating, Morningglory for CC(C)N(C(=O)n1oc(=O)n(Cc2ccccn2)c1=O)c1ccc(F)cc1 ?
Result: 3
